target: norovirus 3CL protease (NV 3CLpro) (Norovirus, UniProt Q83883); experiment: FRET protease assay (3CL protease), enzyme inhibition; format: biochemical; conditions: Table 1, ester prodrugs; average of at least two determinations; read-out: IC50 (50% inhibitory concentration in the enzyme assay)
Sequence (Q83883 1101-1281): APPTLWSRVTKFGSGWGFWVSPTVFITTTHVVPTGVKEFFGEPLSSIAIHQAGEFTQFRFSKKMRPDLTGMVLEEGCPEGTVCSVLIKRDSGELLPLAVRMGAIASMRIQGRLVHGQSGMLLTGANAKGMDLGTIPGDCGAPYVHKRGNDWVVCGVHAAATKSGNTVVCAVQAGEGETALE
Lab note - cut at 3 µM for IC50: Met if strictly below, Not met if not.

# example entries with known answers
compound: CC(C)C(=O)OC([C@H](C[C@@H]1CCNC1=O)NC(=O)[C@H](CC1CCCCC1)NC(=O)OCc1cccc(Cl)c1)S(=O)(=O)O (stereo partly shown) [Compound 13]
classLabel: Met
--
compound: CC(=O)OC([C@H](C[C@@H]1CCNC1=O)NC(=O)[C@H](CC(C)C)NC(=O)OCc1ccccc1)S(=O)(=O)O (stereo partly shown) [Compound 1]
classLabel: Not met

Please check: IC50 for CC(=O)OC([C@H](C[C@@H]1CCNC1=O)NC(=O)[C@H](CC1CCCCC1)NC(=O)OCc1ccccc1)S(=O)(=O)O (stereo partly shown) [Compound 15] , strictly under 3 µM or not?
Not met

Another compound to look at: O=C(N[C@@H](CC1CCCCC1)C(=O)N[C@@H](C[C@@H]1CCNC1=O)C(OC(=O)C1CCCCC1)S(=O)(=O)O)OCc1ccccc1 (stereo partly shown) [Compound 16]
Met

Another compound to look at: CCCCCC(=O)OC([C@H](C[C@@H]1CCNC1=O)NC(=O)[C@H](CC1CCCCC1)NC(=O)OCc1cccc(Cl)c1)S(=O)(=O)O (stereo partly shown) [Compound 11]
Met

Another compound to look at: CC(=O)OC([C@H](C[C@@H]1CCNC1=O)NC(=O)[C@H](CC1CCCCC1)NC(=O)OCc1cccc(Cl)c1)S(=O)(=O)O (stereo partly shown) [Compound 9]
Met

Another compound to look at: CCCCCC(=O)OC([C@H](C[C@@H]1CCNC1=O)NC(=O)[C@H](CC(C)C)NC(=O)OCc1ccccc1)S(=O)(=O)O (stereo partly shown) [Compound 5]
Met

Every entry's value here was drawn from patent US11033600B2.
